Values compiled from patent US7829560B2.

experimentalTarget: p38α (Homo sapiens, UniProt Q16539)
Construct: p38 MAP Kinases are recombinant human full-length proteins with an amino-terminal GST fusion; GST (N)
Sequence (Q16539 whole entry, the tested form may be a part): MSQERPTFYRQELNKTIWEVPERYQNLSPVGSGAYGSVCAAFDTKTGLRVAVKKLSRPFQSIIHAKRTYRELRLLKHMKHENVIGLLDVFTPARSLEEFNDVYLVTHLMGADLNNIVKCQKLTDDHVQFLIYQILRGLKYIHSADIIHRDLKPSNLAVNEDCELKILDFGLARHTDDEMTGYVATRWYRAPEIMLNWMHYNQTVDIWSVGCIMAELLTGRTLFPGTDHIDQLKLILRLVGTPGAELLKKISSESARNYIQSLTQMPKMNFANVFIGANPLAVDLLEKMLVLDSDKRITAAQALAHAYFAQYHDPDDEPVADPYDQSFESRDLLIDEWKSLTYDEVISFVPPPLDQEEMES
assayInfo: p38 MAP Kinase assay: inhibition of ATF2 phosphorylation, ELISA
conditionContext: ATF2 phosphorylation; read-out: [ENZ] P38 ALPHA, IC50, ELISA
Reported IC50 values are given for each entry in this list.

{"smilesRepr": "O=C(Nc1ccc(OCCN2CCOCC2)c2ccccc12)c1cccc(-c2ccc(OC(F)(F)F)cc2)c1", "readoutValue": "> 100 µM"}
{"smilesRepr": "O=C(Nc1ccc(OCCN2CCOCC2)c2ccccc12)c1cc(N2CCOCC2)ncn1", "readoutValue": "> 10 µM"}
{"smilesRepr": "Cc1cccc(C(=O)Nc2ccc(OCCN3CCOCC3)c3ccccc23)c1", "readoutValue": "> 10 µM"}
{"smilesRepr": "O=C(Nc1ccc(OCCN2CCOCC2)c2ccccc12)c1ccnc(N2CCC(O)CC2)c1", "readoutValue": "> 10 µM"}
{"smilesRepr": "O=C(Nc1ccc(OCCN2CCOCC2)c2ccccc12)c1cc(F)cc(N2CCN(c3ccc(F)cc3)CC2)c1", "readoutValue": "> 10 µM"}

# input Give reported IC50 for O=C(Nc1ccc(OCCN2CCOCC2)c2ccccc12)c1ccnc(N2CCC3(CC2)OCCO3)c1 (p38α (Homo sapiens, UniProt Q16539))
# output > 10 µM

# input Give reported IC50 for COc1ccc(-c2cccc(C(=O)Nc3ccc(OCCN4CCOCC4)c4ccccc34)c2)cc1F (p38α (Homo sapiens, UniProt Q16539))
# output > 10 µM

# input Give reported IC50 for O=C(Nc1ccc(OCCN2CCOCC2)c2ccccc12)c1cccc(-c2cccc(OCc3ccccc3)c2)c1 (p38α (Homo sapiens, UniProt Q16539))
# output > 100 µM

# input Give reported IC50 for O=C(Nc1ccc(OCCN2CCOCC2)c2ccccc12)c1ccc(N2CCOCC2)cc1 (p38α (Homo sapiens, UniProt Q16539))
# output > 10 µM
